These measurements were taken from patent US20190241669A1.

testedTarget: Human BCMA (human) (UniProt Q02223)
protocolDescription: SPR, IgG immobilised, huBCMA analyte, 37 C
For each entry below, report its T½ value.
Numbers only; they are read as min.

For reference, reported T½ for L3.PY/L3.KY/H2.QL (antibody, V domains shown, IgG) VH: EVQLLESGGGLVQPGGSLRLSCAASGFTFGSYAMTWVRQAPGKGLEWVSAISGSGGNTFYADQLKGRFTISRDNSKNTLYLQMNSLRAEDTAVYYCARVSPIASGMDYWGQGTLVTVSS VL: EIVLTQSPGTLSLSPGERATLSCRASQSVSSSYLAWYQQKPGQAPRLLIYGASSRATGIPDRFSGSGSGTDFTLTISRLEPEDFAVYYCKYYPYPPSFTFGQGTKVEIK stands at 5.56

For reference, reported T½ for L3.PY/L3.KF/H2.YQ (antibody, V domains shown, IgG) VH: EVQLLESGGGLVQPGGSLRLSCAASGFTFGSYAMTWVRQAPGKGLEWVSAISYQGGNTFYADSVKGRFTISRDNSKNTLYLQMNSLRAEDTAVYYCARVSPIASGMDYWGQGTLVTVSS VL: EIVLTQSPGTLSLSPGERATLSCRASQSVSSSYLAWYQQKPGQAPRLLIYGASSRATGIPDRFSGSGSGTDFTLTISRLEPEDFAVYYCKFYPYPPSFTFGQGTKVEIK stands at 5.18
